System: THRa homodimer (NR concentration 90 nM)
test description: PBM binding z-score (relative to random genomic background probes); higher = stronger binding; sequences stand for … in GC…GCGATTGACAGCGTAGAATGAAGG
Please respond with reported PBM binding z-score for every item in the list.
Give bare numbers.

Reference set, count: 5
INPUT: # PBM binding z-score lookup, item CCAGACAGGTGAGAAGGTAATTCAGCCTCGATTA
OUTPUT: 0.0221

INPUT: Further, for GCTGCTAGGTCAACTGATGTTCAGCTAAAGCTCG ?
OUTPUT: 1.02

INPUT: Now try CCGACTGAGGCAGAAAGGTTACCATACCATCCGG .
OUTPUT: -0.0968

INPUT: Then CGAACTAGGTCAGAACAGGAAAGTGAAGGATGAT ?
OUTPUT: 0.124

INPUT: Lookup TTACCAAGGTGAATGTCGTTGATCCCTCTGTAGA
OUTPUT: 0.923

Shifting focus to the sequence that follows.
INPUT: Need PBM binding z-score of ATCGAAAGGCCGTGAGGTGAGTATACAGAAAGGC , thanks.
OUTPUT: 0.902

====

Test system: RARg:RXRa (NR concentration 270 nM, RXRa partner concentration 90 nM)
test description: PBM binding z-score (relative to random genomic background probes); higher = stronger binding; sequences stand for … in GC…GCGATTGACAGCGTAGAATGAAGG
// map PBM binding z-score to label using group 1 (below 0.3), group 2 (0.3 to below 3), group 3 (3 or more)

Please review the following examples before continuing.
INPUT: Which category does the recorded PBM binding z-score put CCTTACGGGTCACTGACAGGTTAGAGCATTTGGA in?
OUTPUT: group 3

INPUT: Same read-out for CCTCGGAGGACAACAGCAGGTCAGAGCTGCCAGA ?
OUTPUT: group 2

INPUT: Repeat with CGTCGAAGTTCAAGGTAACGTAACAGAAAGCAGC
OUTPUT: group 2

***
INPUT: For the record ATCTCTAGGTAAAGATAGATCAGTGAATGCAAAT , report the class its PBM binding z-score corresponds to.
OUTPUT: group 1

INPUT: Again, but for CTCGAAAGGTCGGTTGAGGTTAGTATACGGATAA
OUTPUT: group 3

INPUT: And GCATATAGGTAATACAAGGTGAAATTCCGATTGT ?
OUTPUT: group 2

INPUT: Try this sequence next: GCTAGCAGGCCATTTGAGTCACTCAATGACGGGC
OUTPUT: group 1

INPUT: What do you have for CAAACTAGGCCAAAGGTCAAAGTCGAGCCAACCA ?
OUTPUT: group 3

INPUT: Would you mind doing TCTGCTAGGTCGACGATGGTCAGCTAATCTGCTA as well?
OUTPUT: group 2

INPUT: Likewise for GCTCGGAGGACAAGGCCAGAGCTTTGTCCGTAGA ?
OUTPUT: group 1

INPUT: Same thing, different sequence: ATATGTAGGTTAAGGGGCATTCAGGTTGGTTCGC
OUTPUT: group 2

INPUT: Do the same for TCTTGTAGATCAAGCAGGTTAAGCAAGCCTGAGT please
OUTPUT: group 1

====

System: PPARg homodimer (NR concentration 180 nM)
test description: PBM binding z-score (relative to random genomic background probes); higher = stronger binding; sequences stand for … in GC…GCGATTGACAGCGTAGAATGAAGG
observed property: PBM binding z-score

In the examples that follow, each entry is paired with its recorded PBM binding z-score.
INPUT: Fill in: PBM binding z-score of TCTGCTAGGTCAGTTGGACAGCTAACGAGCTGCC is ___
OUTPUT: -0.587

INPUT: Now the sequence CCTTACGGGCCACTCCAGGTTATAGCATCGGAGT
OUTPUT: 0.232

INPUT: Same lookup for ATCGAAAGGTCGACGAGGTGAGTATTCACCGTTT , please.
OUTPUT: 0.854

INPUT: Queued: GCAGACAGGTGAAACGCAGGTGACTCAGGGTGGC
OUTPUT: -0.182

INPUT: Subsequent entry: GATACAGGGTCATGGCCAGAGTACGCGTATTGAT
OUTPUT: 1.88

Could I get PBM binding z-score for every one of these entries?
1. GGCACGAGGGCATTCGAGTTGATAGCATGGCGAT
2. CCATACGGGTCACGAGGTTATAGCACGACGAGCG

OUTPUT:
-0.356
2.89

====

Kindly supply the reported PBM binding z-score values for the records listed here.
System: VDR:RXRa (NR concentration 270 nM, RXRa partner concentration 90 nM)
test description: PBM binding z-score (relative to random genomic background probes); higher = stronger binding; sequences stand for … in GC…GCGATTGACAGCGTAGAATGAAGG
Give bare numbers.

Record excerpt, results attached:
INPUT: What does the data say about its PBM binding z-score? Entry: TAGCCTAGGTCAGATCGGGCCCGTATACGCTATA
OUTPUT: 0.22

INPUT: Ok, now ATACCAAGGTGATCGTGAGGTCGTTCATACTAAC
OUTPUT: 3.58

INPUT: Note, next up: TCATATAGGTAAACAGGTCAAAGTCCGTAAGTTA
OUTPUT: 2.87

For every listed record, write down its PBM binding z-score.
1. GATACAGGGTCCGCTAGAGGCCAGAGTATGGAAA
2. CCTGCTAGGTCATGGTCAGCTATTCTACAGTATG
3. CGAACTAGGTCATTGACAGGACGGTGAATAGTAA
4. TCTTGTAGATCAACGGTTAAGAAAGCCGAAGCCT
5. CCTCGGAGGACAACAGGAGGTCAGAGCAGCCAGA

OUTPUT:
1: -0.544; 2: 1.52; 3: 1.62; 4: 0.234; 5: 1.94

For each listed entry, give its PBM binding z-score.
1. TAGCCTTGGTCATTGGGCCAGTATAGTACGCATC
2. TATACAGGGTCAAAGGCCAGAGCACGAATGTCGA
3. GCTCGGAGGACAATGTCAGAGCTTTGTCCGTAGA
4. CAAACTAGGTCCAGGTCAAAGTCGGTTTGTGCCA
5. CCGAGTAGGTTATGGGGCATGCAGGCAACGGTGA

OUTPUT:
-0.419
4.37
-0.573
3.06
-0.196

====

System: PPARg:RXRa DBDmut IVT, anti-RXR (DBD mutation: RXRa K156A/R161A, NR concentration 270 nM, RXRa partner concentration 90 nM)
test description: PBM binding z-score (relative to random genomic background probes); higher = stronger binding; sequences stand for … in GC…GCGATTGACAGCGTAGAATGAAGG
Assign PBM binding z-score to each entry below.

Example entries begin here.
INPUT: Return reported PBM binding z-score; argument: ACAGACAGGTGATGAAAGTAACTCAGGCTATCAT
OUTPUT: -0.123

INPUT: Another sequence to look at: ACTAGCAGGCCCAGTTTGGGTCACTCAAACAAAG
OUTPUT: -0.917

INPUT: Try the sequence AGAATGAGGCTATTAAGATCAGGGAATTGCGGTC
OUTPUT: 0.775

I would be grateful if you could provide PBM binding z-score for each of the following entries.
1. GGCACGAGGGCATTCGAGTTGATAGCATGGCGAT
2. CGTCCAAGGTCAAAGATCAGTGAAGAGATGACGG

OUTPUT:
[1.63, 3.3]

====

Consider the following sequences; for each one, report its PBM binding z-score.
Tested on: RARb homodimer (NR concentration 270 nM)
test description: PBM binding z-score (relative to random genomic background probes); higher = stronger binding; sequences stand for … in GC…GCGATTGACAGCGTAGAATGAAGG
One number for each entry.

Here is how some sequences turned out for PBM binding z-score.
INPUT: Quick one: PBM binding z-score of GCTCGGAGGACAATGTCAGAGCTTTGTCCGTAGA ?
OUTPUT: 0.0448

INPUT: // query: ATCGAAAGGTCGAGGTCAGTATAGAGAAAGGGAA
OUTPUT: 4.73

INPUT: Item: TTATATAGGTAAAAGGTGAAAGTCGGTGTGGTAA
OUTPUT: 1.62

INPUT: Now consider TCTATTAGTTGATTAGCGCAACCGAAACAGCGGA and answer again.
OUTPUT: -0.343

INPUT: Repeat with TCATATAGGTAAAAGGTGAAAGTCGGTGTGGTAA
OUTPUT: 2.06

INPUT: Moving on to ATCTCTAGGCAAAGTTCAGTGAAAGATCGATAGA
OUTPUT: 2.14

INPUT: Continue with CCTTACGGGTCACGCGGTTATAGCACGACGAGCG
OUTPUT: 3.87

INPUT: Thanks! And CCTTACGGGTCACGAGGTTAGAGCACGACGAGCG ?
OUTPUT: 3.63

// each sequence listed below needs its PBM binding z-score
1. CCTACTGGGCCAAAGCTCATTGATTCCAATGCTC
2. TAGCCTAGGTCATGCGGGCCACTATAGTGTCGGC
3. CGTCAAAGTTCAGCTAAGGTAACGTAAAGCACGC

OUTPUT:
-0.417
2.97
3.8

INPUT: Sample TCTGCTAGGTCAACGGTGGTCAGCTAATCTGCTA — what was its PBM binding z-score?
OUTPUT: 3.48
